Consider the following compounds; for each one, report its pEC50.
Target: CB1 receptor (Homo sapiens)
Experiment: β-arrestin recruitment in CNR1 PathHunter cell line, allosteric modulation of CP55,940 response
Type: cell-based
Details: Table 1; CP55,940 as agonist; read-out: β-arrestin EC50
Lab note: report pEC50 as minus log10 of the concentration in molar units, number only.

Entry O=C(Nc1ccc(Oc2ccccc2)cc1)Nc1cccc(-c2cccc(N3CCCC3)n2)c1 [Compound 10k] : reported pEC50 = ?
6.94

Can you look up the measured pEC50 of O=C(Nc1cccc(-c2cccc(N3CCCC3)n2)c1)Nc1ccc(Cl)c(C#CCCO)c1 [Compound 22b] for me?
6.83

Which measured pEC50 value corresponds to Cc1ccccc1NC(=O)Nc1cccc(-c2cccc(N3CCCC3)n2)c1 [Compound 10p] ?
6.44

# get_value(readout='pEC50', item= COc1ccc(NC(=O)Nc2cccc(-c3cccc(N4CCCC4)n3)c2)cc1 [Compound 10h] )
7.00

====

Target: CB1 receptor (Homo sapiens)
Test: DiscoveRx HitHunter cAMP XS+ assay in cAMP Hunter cell line, allosteric modulation of CP55,940 response
Format: cell-based
Settings: Table 1; preincubation with compound, then CP55,940 challenge; 20 μM forskolin; read-out: cAMP EC50
Kindly state EC50 for each of the entries shown.

Look up EC50 for this compound: O=C(Nc1cccc(-c2cccc(N3CCCC3)n2)c1)Nc1ccccc1Cl [Compound 10d]
> 10000 nM

Name the reported EC50 value associated with the compound O=C(Nc1ccc(Cl)cc1)Nc1ccc(-c2cccc(N3CCCC3)n2)cc1
> 10000 nM

Can you look up the measured EC50 of Cc1cccc(NC(=O)Nc2cccc(-c3cccc(N4CCCC4)n3)c2)c1 [Compound 10o] for me?
483 nM

Given the entry O=C(Nc1ccccc1)Nc1cccc(-c2cccc(N3CCCC3)n2)c1 [Compound 10q] , report its measured EC50.
501 nM

Request the reported EC50 associated with O=C(Nc1cccc(-c2cccc(N3CCCC3)n2)c1)Nc1ccccc1CCCCOC1CCCCO1 (centres unmarked) [Compound 23c]
> 10000 nM

====

Biological target: CB1 receptor (Homo sapiens, UniProt P21554)
Sequence (P21554 whole entry): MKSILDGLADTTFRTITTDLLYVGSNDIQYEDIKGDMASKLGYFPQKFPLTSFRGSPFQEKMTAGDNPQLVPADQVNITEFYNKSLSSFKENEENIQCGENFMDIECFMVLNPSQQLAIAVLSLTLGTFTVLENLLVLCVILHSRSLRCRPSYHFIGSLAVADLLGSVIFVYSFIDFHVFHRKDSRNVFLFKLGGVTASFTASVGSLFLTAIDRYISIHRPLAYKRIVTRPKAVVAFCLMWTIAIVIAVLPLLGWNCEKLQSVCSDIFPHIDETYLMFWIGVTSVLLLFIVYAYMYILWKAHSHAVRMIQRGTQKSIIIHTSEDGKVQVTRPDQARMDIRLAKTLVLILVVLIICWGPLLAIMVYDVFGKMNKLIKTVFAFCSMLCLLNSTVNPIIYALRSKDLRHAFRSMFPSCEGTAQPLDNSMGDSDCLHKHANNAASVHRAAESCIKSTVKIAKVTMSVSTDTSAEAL
Test: β-arrestin recruitment in CNR1 PathHunter cell line, allosteric modulation of CP55,940 response
Format: cell-based
Settings: β-arrestin EC50 nM
observation_type: EC50 (nM)
A number alone suffices; assume nM.

Which measured EC50 value corresponds to Cc1ccc(NC(=O)Nc2cccc(-c3cccc(N4CCCC4)n3)c2)cc1 [Compound 10n] ?
119

Would you kindly share the measured EC50 for CC(C)c1ccccc1NC(=O)Nc1cccc(-c2cccc(N3CCCC3)n2)c1 [Compound 10v] ?
4200

====

Biological target: CB1 receptor (Homo sapiens, UniProt P21554)
Assay: β-arrestin recruitment in CNR1 PathHunter cell line, allosteric modulation of CP55,940 response
Type: cell-based
Settings: Table 1; CP55,940 as agonist; read-out: β-arrestin EC50
Description: For allosteric determination, cells were preincubated with compound followed by agonist challenge at the EC20 concentration of the agonist. 5 μL of 4× compound was added to cells and incubated at 37° C. for 30 minutes. […] Data Analysis: Dose curves were plotted using GraphPad Prism or Activity Base. The percentage activity is calculated using the following formula: % Activity=100%×(1−(mean RLU of test sample−mean RLU of MAX control)/(mean RLU of vehicle control [EC20 for PAM]−mean RLU of MAXcontrol). […]
observation_type: pEC50
Lab note: report pEC50 as minus log10 of the concentration in molar units, number only.

Looking for the measured pEC50 of Clc1ccc(-c2nnc(Nc3cccc(-c4cccc(N5CCCC5)n4)c3)o2)cc1 [Compound 45] , can you help?
5.49

# input molecule: O=C(Nc1cccc(-c2cccc(N3CCCC3)n2)c1)Nc1ccc(Cl)cc1C#CCCOC1CCCCO1 (centres unmarked) [Compound 21a] ; wanted: its pEC50
5.47

# query: pEC50 of entry O=C(Nc1cccc(-c2cccc(N3CCCC3)n2)c1)Nc1ccc(Cl)cc1I [Compound 19a]
5.92

Quick one: pEC50 of O=c1c(Nc2ccc(Cl)cc2)c(Nc2cccc(-c3cccc(N4CCCC4)n3)c2)c1=O [Compound 38] ?
6.95

Reported pEC50, molecule O=C(Nc1cccc(-c2cccc(N3CCCC3)n2)c1)Nc1ccc(Cl)cc1C#CCCO [Compound 22a] : ____
5.31

Item O=C(Nc1cccc(-c2cccc(N3CCCC3)n2)c1)Nc1ccccc1F [Compound 10u] has what recorded pEC50?
7.00

Any idea what its pEC50 is? The molecule is CN(C(=O)Nc1cccc(-c2cccc(N3CCCC3)n2)c1)c1ccc(Cl)cc1 [Compound 13a]
5.99

Tell me the measured pEC50 of O=C(Nc1cccc(-c2cccc(N3CCCC3)n2)c1)Nc1ccccc1C(F)(F)F [Compound 10g] , please.
5.68

Bench note: what pEC50 did O=C(Nc1cccc(-c2cccc(N3CCCC3)n2)c1)Oc1ccc(Cl)cc1 [Compound 13b] show?
5.27

May I ask what pEC50 has been recorded for COc1cccc(NC(=O)Nc2cccc(-c3cccc(N4CCCC4)n3)c2)c1 [Compound 10i] ?
6.30

pEC50 for O=C(Nc1ccc(Cl)cc1)Nc1ccccc1-c1cccc(N2CCCC2)n1 [Compound 55] ?
5.23

Query (molecule): CCc1ccccc1NC(=O)Nc1cccc(-c2cccc(N3CCCC3)n2)c1 [Compound 10r] ; field requested: pEC50
5.48

If you can, please state the reported pEC50 value of O=C(Nc1cccc(-c2cccc(N3CCCC3)n2)c1)Nc1ccc2ccccc2c1 [Compound 10x] .
5.72

Find the recorded pEC50 belonging to O=C(Nc1cccc(-c2cccc(N3CCCC3)n2)c1)Nc1ccc(Cl)c(CCCCO)c1 [Compound 24b] and report it.
5.87

pEC50 for CN(C(=O)Nc1ccc(Cl)cc1)c1cccc(-c2cccc(N3CCCC3)n2)c1 [Compound 27] ?
6.42

Value lookup for pEC50; key = O=C(Nc1cccc(-c2cccc(N3CCCC3)n2)c1)Nc1ccccc1CCCCOC1CCCCO1 (centres unmarked) [Compound 23c]
5.21

I would be grateful if you could share the reported pEC50 for O=C(Nc1cccc(-c2cccc(N3CCCC3)n2)c1)Nc1ccccc1CO [Compound 17] .
6.17

====

Target: CB1 receptor (Homo sapiens)
Assay: DiscoveRx HitHunter cAMP XS+ assay in cAMP Hunter cell line, allosteric modulation of CP55,940 response
Type: cell-based
Settings: cAMP EC50 nM
observation_type: EC50 (nM)
Numeric only. Scale: nM

Find EC50 (CB1 receptor (Homo sapiens)) for the entry CC(C)c1ccccc1NC(=O)Nc1cccc(-c2cccc(N3CCCC3)n2)c1 [Compound 10v]
4810

Test system CB1 receptor (Homo sapiens); read-out EC50; what value for Cc1ccc(NC(=O)Nc2cccc(-c3cccc(N4CCCC4)n3)c2)cc1 [Compound 10n] ?
764

====

Exercise: state measured cAMP % inhibition for each of the molecules provided.
Molecular target: CB1 receptor (Homo sapiens, UniProt P21554)
Test: DiscoveRx HitHunter cAMP XS+ assay in cAMP Hunter cell line, allosteric modulation of CP55,940 response
Format: cell-based
Details: Table 1; preincubation with compound, then CP55,940 challenge; 20 μM forskolin
Reply with the number, then its unit.

Any idea what its cAMP % inhibition is? The molecule is O=C(Nc1cccc(-c2cccc(N3CCCC3)n2)c1)Nc1ccc(Cl)cc1I [Compound 19a]
53%

Fill in: cAMP % inhibition of CN(C(=O)Nc1cccc(-c2cccc(N3CCCC3)n2)c1)c1ccc(Cl)cc1 [Compound 13a] is ___
17%

Dear colleague, I am looking for the recorded cAMP % inhibition of the following molecule: CN(C(=O)N(C)c1cccc(-c2cccc(N3CCCC3)n2)c1)c1ccc(Cl)cc1 [Compound 28]
39%

For O=C(Nc1ccc(Cl)cc1)Nc1cccc(-c2cccc(N3CCCC3)c2)c1 [Compound 64] , what is its reported cAMP % inhibition?
84%

Record request: cAMP % inhibition value, item O=C(Nc1ccc(Cl)cc1)Nc1cccc(-c2cccc(N3CCNCC3)n2)c1 [Compound 67b]
113%

Requested read-out: cAMP % inhibition. Entry: COc1cccc(NC(=O)Nc2cccc(-c3cccc(N4CCCC4)n3)c2)c1 [Compound 10i]
92%

# query: cAMP % inhibition of entry O=C(Nc1cccc(-c2cccc(N3CCCC3)n2)c1)Nc1ccccc1CO [Compound 17]
33%

State the recorded cAMP % inhibition for this entry: O=C(Nc1cccc(-c2cccc(N3CCCC3)n2)c1)Nc1ccc2ccccc2c1 [Compound 10x]
68%

====

Provide the recorded cAMP % inhibition for the entries that follow.
Target: CB1 receptor (Homo sapiens, UniProt P21554)
Experiment: DiscoveRx HitHunter cAMP XS+ assay in cAMP Hunter cell line, allosteric modulation of CP55,940 response
Format: cell-based
Settings: Table 1; preincubation with compound, then CP55,940 challenge; 20 μM forskolin
Express the result in % but write the number alone.

Find the measured cAMP % inhibition: item O=C(Nc1ccc(F)cc1)Nc1cccc(-c2cccc(N3CCCC3)n2)c1 [Compound 10t] , target or system CB1 receptor (Homo sapiens, UniProt P21554).
119

Checklist item: cAMP % inhibition tested on CB1 receptor (Homo sapiens, UniProt P21554), entry N#C/N=C(/Nc1ccc(Cl)cc1)Nc1cccc(-c2cccc(N3CCCC3)n2)c1 , value?
29

Missing value: cAMP % inhibition, CB1 receptor (Homo sapiens, UniProt P21554), entry O=C(Nc1cccc(-c2cccc(N3CCCC3)n2)c1)Nc1ccccc1C(F)(F)F [Compound 10g] . Fill in?
119

Query cAMP % inhibition on CB1 receptor (Homo sapiens, UniProt P21554) for O=C(Nc1cccc(-c2cccc(N3CCCC3)n2)c1)Nc1ccc(Cl)cc1C#CCCOC1CCCCO1 (stereo not shown) [Compound 21a]
9
